- targetUnderTest: BRAF V600E (Homo sapiens, UniProt P15056+Q96SW2, V600E)
- Construct: knock-in of the HiBiT tag to the endogenous BRAF V600E locus; host or cells: A375.10 (A375 clonal line, CRISPR HiBiT knock-in at the endogenous BRAF V600E locus)
- Sequence (P15056 whole entry V600E): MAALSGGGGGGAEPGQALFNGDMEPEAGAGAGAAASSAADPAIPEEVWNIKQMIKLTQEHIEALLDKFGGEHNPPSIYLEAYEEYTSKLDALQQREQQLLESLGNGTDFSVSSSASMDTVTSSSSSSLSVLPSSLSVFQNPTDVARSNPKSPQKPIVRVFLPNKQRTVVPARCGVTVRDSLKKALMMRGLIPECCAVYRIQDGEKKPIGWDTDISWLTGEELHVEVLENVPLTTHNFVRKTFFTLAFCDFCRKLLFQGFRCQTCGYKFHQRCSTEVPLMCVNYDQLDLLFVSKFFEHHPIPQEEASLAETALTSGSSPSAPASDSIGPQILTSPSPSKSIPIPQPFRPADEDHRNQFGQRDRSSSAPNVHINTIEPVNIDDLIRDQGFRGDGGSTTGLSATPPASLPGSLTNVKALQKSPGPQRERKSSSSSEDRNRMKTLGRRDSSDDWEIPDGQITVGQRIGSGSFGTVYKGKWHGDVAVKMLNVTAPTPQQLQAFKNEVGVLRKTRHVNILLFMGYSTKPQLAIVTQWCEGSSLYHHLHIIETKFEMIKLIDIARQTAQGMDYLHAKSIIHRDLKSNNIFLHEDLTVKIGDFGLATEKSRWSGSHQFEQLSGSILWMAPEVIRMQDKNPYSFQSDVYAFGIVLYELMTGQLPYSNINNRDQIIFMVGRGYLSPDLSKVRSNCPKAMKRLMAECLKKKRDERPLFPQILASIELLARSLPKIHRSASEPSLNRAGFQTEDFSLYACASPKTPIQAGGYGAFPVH
- Sequence (Q96SW2 whole entry): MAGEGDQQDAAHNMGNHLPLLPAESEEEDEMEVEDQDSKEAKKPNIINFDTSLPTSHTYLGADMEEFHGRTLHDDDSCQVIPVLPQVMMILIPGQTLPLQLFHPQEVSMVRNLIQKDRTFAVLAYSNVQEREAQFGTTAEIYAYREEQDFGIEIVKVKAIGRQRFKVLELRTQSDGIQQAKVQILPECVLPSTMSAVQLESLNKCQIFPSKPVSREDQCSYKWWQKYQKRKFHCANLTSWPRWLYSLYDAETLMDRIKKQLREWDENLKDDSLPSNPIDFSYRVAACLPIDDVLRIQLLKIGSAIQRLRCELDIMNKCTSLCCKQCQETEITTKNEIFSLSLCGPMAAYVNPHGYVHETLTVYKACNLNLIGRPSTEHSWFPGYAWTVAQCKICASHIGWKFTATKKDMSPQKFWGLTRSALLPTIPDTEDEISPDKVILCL
- Sequence (Q16531 whole entry partner): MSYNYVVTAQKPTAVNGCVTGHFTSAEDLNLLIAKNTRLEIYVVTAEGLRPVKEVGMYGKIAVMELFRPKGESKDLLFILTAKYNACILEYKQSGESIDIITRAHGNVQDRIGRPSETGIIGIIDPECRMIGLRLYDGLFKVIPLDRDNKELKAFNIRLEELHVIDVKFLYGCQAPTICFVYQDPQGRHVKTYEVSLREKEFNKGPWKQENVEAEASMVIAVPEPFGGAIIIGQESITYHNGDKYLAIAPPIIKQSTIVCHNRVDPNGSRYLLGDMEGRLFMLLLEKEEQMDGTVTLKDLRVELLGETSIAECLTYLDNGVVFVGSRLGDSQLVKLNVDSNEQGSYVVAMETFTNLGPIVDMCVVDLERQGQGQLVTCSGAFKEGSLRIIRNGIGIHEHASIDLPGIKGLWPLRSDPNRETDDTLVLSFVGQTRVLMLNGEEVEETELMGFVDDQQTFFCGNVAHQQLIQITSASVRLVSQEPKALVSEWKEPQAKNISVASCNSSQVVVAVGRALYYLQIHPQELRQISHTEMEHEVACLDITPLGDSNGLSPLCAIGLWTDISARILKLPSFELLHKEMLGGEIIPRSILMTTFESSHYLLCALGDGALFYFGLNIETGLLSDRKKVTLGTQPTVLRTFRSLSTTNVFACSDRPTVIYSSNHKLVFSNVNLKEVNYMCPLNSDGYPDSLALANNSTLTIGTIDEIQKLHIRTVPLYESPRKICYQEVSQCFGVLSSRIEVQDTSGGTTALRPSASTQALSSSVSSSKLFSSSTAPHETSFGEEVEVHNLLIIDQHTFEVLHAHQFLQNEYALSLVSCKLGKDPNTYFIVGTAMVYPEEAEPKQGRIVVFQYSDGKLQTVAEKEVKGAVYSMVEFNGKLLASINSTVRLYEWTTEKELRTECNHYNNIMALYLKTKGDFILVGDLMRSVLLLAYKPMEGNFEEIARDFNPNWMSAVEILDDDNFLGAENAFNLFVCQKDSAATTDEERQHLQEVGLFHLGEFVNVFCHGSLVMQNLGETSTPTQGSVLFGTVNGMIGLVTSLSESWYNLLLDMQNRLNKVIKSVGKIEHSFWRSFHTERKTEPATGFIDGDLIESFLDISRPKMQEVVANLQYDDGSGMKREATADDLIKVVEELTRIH
- measurementDescription: BRAF V600E HiBiT Degradation Assay
- Type: cell-based
- conditionInfo: A375.10 cells, HiBiT, BRAF V600E, 24 hours; read-out: HiBiT-Degradation A375.10 BRAF 24 hours DC50
experimentalReadout: DC50

CCN(C)S(=O)(=O)Nc1ccc(F)c(Oc2ccc3ncn(C4CC5(CCN(C6CCC(c7cc8c(cc7F)c(N7CCC(=O)NC7=O)nn8C)CC6)CC5)C4)c(=O)c3c2)c1C#N (single isomer, unassigned) [Compound 8] :: < 1000 nM

// next item, DC50 requested
Bench note: what DC50 did CN(CCO)S(=O)(=O)Nc1ccc(F)c(Oc2ccc3ncn(C4CC5(CCN(C6CCC(c7cc8c(cc7F)c(N7CCC(=O)NC7=O)nn8C)CC6)CC5)C4)c(=O)c3c2)c1C#N (single isomer, unassigned) [Compound 81] show? < 1000 nM

---

- measurementDescription: Pharmacokinetics in female BALB/c nude mice bearing A375 xenografts, 1 day dosing (PK and PD study): plasma, tumor and brain concentrations, AUC
- Format: in vivo
- conditionInfo: mouse, plasma, po, 100 mg/kg, 100 mg/kg p.o. QD × 1 day; 2 h; read-out: Mean Concentration in Plasma ± SEM
experimentalReadout: concentration at 2 h (ng/mL)
State the answer as a number, implicitly in ng/mL.

Bench note: what concentration at 2 h did CC(C)(C)c1nc(-c2cccc(NS(=O)(=O)c3c(F)cccc3F)c2F)c(-c2ccnc(N)n2)s1 [Dabrafenib, dabrafenib, reference compound] show? 844

---

- measurementDescription: Pharmacokinetics in female BALB/c nude mice bearing A375 xenografts, 1 day dosing (PK and PD study): plasma, tumor and brain concentrations, AUC
- Type: in vivo
- conditionInfo: mouse, plasma, po, 1.5 mg/kg, Compound 141; 1.5 mg/kg p.o. BID × 1 day; post 1st dose; 8 h; read-out: Mean Concentration in Plasma ± SEM
experimentalReadout: concentration at 8 h (ng/mL)
State the answer as a number, implicitly in ng/mL.

Bench note: what concentration at 8 h did CCN(C)S(=O)(=O)Nc1ccc(F)c(Oc2ccc3ncn(C4CC5(CCN(C6CC7(C6)CN(c6cc8c(cc6F)c(N6CCC(=O)NC6=O)nn8C)C7)CC5)C4)c(=O)c3c2)c1C#N (stereo not shown) show? 256

---

- measurementDescription: Pharmacokinetics in female BALB/c nude mice bearing A375 xenografts, 1 day dosing (PK and PD study): plasma, tumor and brain concentrations, AUC
- Assay type: in vivo
- conditionInfo: mouse, brain, po, 2 mg/kg, 2 mg/kg p.o. TID × 1 day; post 3rd dose; 1 h; read-out: Mean Concentration in Brain ± SEM
experimentalReadout: concentration at 1 h (ng/g)
State the answer as a number, implicitly in ng/g.

Bench note: what concentration at 1 h did CCN(C)S(=O)(=O)Nc1ccc(F)c(Oc2ccc3ncn([C@H]4COC5(CCN(C6CC7(C6)CN(c6cc8c(cc6F)c(N6CCC(=O)NC6=O)nn8C)C7)CC5)C4)c(=O)c3c2)c1C#N show? 66.5

---

- measurementDescription: Pharmacokinetics in female BALB/c nude mice bearing A375 xenografts, 1 day dosing (PK and PD study): plasma, tumor and brain concentrations, AUC
- Type: in vivo
- conditionInfo: mouse, plasma, po, 1 mg/kg, 1 mg/kg p.o. TID × 1 day; post 3rd dose; 10 h; read-out: Mean Concentration in Plasma ± SEM
experimentalReadout: concentration at 10 h (µg/mL)
State the answer as a number, implicitly in µg/mL.

Bench note: what concentration at 10 h did CCN(C)S(=O)(=O)Nc1ccc(F)c(Oc2ccc3ncn(C4CC5(CCN(C6CC7(C6)CN(c6cc8c(cc6F)c(N6CCC(=O)NC6=O)nn8C)C7)CC5)C4)c(=O)c3c2)c1C#N (stereo not shown) show? 0.415

---

- measurementDescription: Pharmacokinetics in female BALB/c nude mice bearing A375 xenografts, 1 day dosing (PK and PD study): plasma, tumor and brain concentrations, AUC
- Format: in vivo
- conditionInfo: mouse, plasma, po, 1.5 mg/kg, Compound 141; 1.5 mg/kg p.o. BID × 1 day; post 1st dose; 0.5 h; read-out: Mean Concentration in Plasma ± SEM
experimentalReadout: concentration at 0.5 h (ng/mL)
State the answer as a number, implicitly in ng/mL.

Bench note: what concentration at 0.5 h did CCN(C)S(=O)(=O)Nc1ccc(F)c(Oc2ccc3ncn(C4CC5(CCN(C6CC7(C6)CN(c6cc8c(cc6F)c(N6CCC(=O)NC6=O)nn8C)C7)CC5)C4)c(=O)c3c2)c1C#N (stereo not shown) show? 1150

---

- measurementDescription: Pharmacokinetics in female BALB/c nude mice bearing A375 xenografts, 1 day dosing (PK and PD study): plasma, tumor and brain concentrations, AUC
- Assay type: in vivo
- conditionInfo: mouse, plasma, po, 1.5 mg/kg, Compound 141; 1.5 mg/kg p.o. BID × 1 day; post 2nd dose; 24 h; read-out: Mean Concentration in Plasma ± SEM
- From the text: The concentrations of Dabrafenib, Compound 26 and Compound 141 in the treatment of female BALB/c nude mice bearing A375 xenografts are shown in Table 62-Table 72 and FIG. 52-FIG. 73.
experimentalReadout: concentration at 24 h (ng/mL)
State the answer as a number, implicitly in ng/mL.

Bench note: what concentration at 24 h did CCN(C)S(=O)(=O)Nc1ccc(F)c(Oc2ccc3ncn(C4CC5(CCN(C6CC7(C6)CN(c6cc8c(cc6F)c(N6CCC(=O)NC6=O)nn8C)C7)CC5)C4)c(=O)c3c2)c1C#N (stereo not shown) show? 1.2

---

- measurementDescription: Pharmacokinetics after 21 days dosing in the efficacy study (plasma, tumor and brain concentrations; plasma AUC at steady state), Example 14
- Type: in vivo, female BALB/c nude mice
- conditionInfo: mouse, plasma, po; 3 mg/kg p.o. BID x 21 days; 0.25 h; mean ± SEM
- Description: Agents were tested in the A375 human melanoma xenografts. […] Dabrafenib, Compound 26 and Compound 141 in female BALB/c nude mice plasma (K2-EDTA), tumor and brain homogenate were analyzed by LC-MS/MS (Triple Quad 6500+ Low Mass). […]
experimentalReadout: concentration at 0.25 h (ng/mL)
State the answer as a number, implicitly in ng/mL.

Bench note: what concentration at 0.25 h did CCN(C)S(=O)(=O)Nc1ccc(F)c(Oc2ccc3ncn([C@H]4COC5(CCN(C6CC7(C6)CN(c6cc8c(cc6F)c(N6CCC(=O)NC6=O)nn8C)C7)CC5)C4)c(=O)c3c2)c1C#N show? 2490

---

- measurementDescription: Pharmacokinetics in female BALB/c nude mice bearing A375 xenografts, 1 day dosing (PK and PD study): plasma, tumor and brain concentrations, AUC
- Format: in vivo
- conditionInfo: mouse, brain, po, 3 mg/kg, 3 mg/kg p.o. BID × 1 day; post 2nd dose; 0.25 h; read-out: Mean Concentration in Brain ± SEM
experimentalReadout: concentration at 0.25 h (ng/g)
State the answer as a number, implicitly in ng/g.

Bench note: what concentration at 0.25 h did CCN(C)S(=O)(=O)Nc1ccc(F)c(Oc2ccc3ncn([C@H]4COC5(CCN(C6CC7(C6)CN(c6cc8c(cc6F)c(N6CCC(=O)NC6=O)nn8C)C7)CC5)C4)c(=O)c3c2)c1C#N show? 29.7

---

- measurementDescription: Pharmacokinetics in female BALB/c nude mice bearing A375 xenografts, 1 day dosing (PK and PD study): plasma, tumor and brain concentrations, AUC
- Type: in vivo
- conditionInfo: mouse, plasma, po, 3 mg/kg, 3 mg/kg p.o. BID × 1 day; post 1st dose; 12 h; read-out: Mean Concentration in Plasma ± SEM
- Excerpt: The concentrations of Dabrafenib, Compound 26 and Compound 141 in the treatment of female BALB/c nude mice bearing A375 xenografts are shown in Table 62-Table 72 and FIG. 52-FIG. 73.
experimentalReadout: concentration at 12 h (ng/mL)
State the answer as a number, implicitly in ng/mL.

Bench note: what concentration at 12 h did CCN(C)S(=O)(=O)Nc1ccc(F)c(Oc2ccc3ncn([C@H]4COC5(CCN(C6CC7(C6)CN(c6cc8c(cc6F)c(N6CCC(=O)NC6=O)nn8C)C7)CC5)C4)c(=O)c3c2)c1C#N show? 527

---

Recorded Emax by entry
- targetUnderTest: BRAF V600E (Homo sapiens, UniProt P15056+Q96SW2, V600E)
- Construct: knock-in of the HiBiT tag to the endogenous BRAF V600E locus; host or cells: A375.10 (A375 clonal line, CRISPR HiBiT knock-in at the endogenous BRAF V600E locus)
- measurementDescription: BRAF V600E HiBiT Degradation Assay
- Type: cell-based
- conditionInfo: A375.10 cells, BRAF V600E, 2 hours; residual protein remaining; read-out: HiBiT-Degradation A375.10 BRAF 2 hours Emax

Some entries whose results are on file:
CCN(C)S(=O)(=O)Nc1ccc(F)c(Oc2ccc3ncn([C@H]4COC5(C4)CN(C4CCN(c6cc7c(cc6F)c(N6CCC(=O)NC6=O)nn7C)CC4)C5)c(=O)c3c2)c1C#N :: 50 to 90%
CN(CCO)S(=O)(=O)Nc1ccc(F)c(Oc2ccc3ncc([C@@H]4COC5(CCN(C6CCC(c7cc8c(cc7F)c(N7CCC(=O)NC7=O)nn8C)CC6F)CC5)C4)nc3c2)c1C#N (single isomer, unassigned) :: 50 to 90%
CCN(C)S(=O)(=O)Nc1ccc(F)c(Oc2ccc3ncn(C4[C@H]5CN(C6CCC(c7cc8c(cc7F)c(N7CCC(=O)NC7=O)nn8C)CC6)C[C@@H]45)c(=O)c3c2)c1C#N (single isomer, unassigned) :: < 50%

Which measured Emax belongs to Cn1nc(N2CCC(=O)NC2=O)c2cc(F)c(N3CC4(CC(N5CCC6(CC5)CC(c5cnc7ccc(Oc8c(F)ccc(NS(=O)(=O)N9CC[C@@H](F)C9)c8C#N)cc7n5)C6)C4)C3)cc21 , tested on BRAF V600E (Homo sapiens, UniProt P15056+Q96SW2, V600E)? < 50%

Which measured Emax belongs to CCN(C)S(=O)(=O)Nc1ccc(F)c(Oc2ccc3ncn([C@H]4COC5(CCN(C6CC7(C6)CN(c6ccc(NC8CCC(=O)NC8=O)cc6F)C7)CC5)C4)c(=O)c3c2)c1F (some centres unmarked) , tested on BRAF V600E (Homo sapiens, UniProt P15056+Q96SW2, V600E)? 50 to 90%
